We begin with a simple list: items and their reported melting point.
property-measured: melting point

INSERT INTO results (smiles_repr, property_measured, value_reported) VALUES
  ('CCCS(=O)(=O)Nc1ccc2c(c1)S(=O)(=O)C=C(c1c(O)c3cc(F)ccc3n(CCC3CC3)c1=O)N2.[Na]', 'melting point', '> 250 °C'),
  ('COc1ccc2c(c1)S(=O)(=O)C=C(c1c(O)c3cc(F)ccc3n(Cc3ccc(F)cc3)c1=O)N2', 'melting point', '> 250 °C'),
  ('O=c1c(C2=CS(=O)(=O)c3ccccc3N2)c(O)c2cc(Cl)ccc2n1CCC1CC1', 'melting point', '227 to 229 °C'),
  ('O=c1c(C2=CS(=O)(=O)c3cc(OCc4ccccc4)ccc3N2)c(O)c2cc(F)ccc2n1Cc1ccc(F)cc1', 'melting point', '242 to 244 °C'),
  ('Nc1ccc2c(c1)S(=O)(=O)C=C(c1c(O)c3ccccc3n(CCC3CC3)c1=O)N2', 'melting point', '> 250 °C'),
  ('Cc1ccc2c(c1)c(O)c(C1=CS(=O)(=O)c3ccccc3N1)c(=O)n2Cc1ccc(F)cc1', 'melting point', '247 to 249 °C');
